I'd appreciate it if you could supply kinase still bound, per cent of control values for the items below.
Target: CAMK2D (human) (UniProt Q13557)
Sequence (Q13557 whole entry, looked up): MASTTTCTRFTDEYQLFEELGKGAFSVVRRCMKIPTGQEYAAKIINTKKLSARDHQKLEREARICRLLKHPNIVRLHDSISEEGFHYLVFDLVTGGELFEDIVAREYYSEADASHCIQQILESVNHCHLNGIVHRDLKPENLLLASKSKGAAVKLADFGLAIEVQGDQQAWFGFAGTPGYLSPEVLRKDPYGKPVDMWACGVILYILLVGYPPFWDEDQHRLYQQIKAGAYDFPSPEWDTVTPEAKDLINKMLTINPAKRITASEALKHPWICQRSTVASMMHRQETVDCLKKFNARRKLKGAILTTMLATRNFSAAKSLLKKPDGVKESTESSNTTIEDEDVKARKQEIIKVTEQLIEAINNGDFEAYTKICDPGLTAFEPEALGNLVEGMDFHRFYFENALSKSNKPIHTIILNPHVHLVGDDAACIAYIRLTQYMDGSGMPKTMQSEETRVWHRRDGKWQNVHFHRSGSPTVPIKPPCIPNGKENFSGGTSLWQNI
Assay: KINOMEscan competition binding
Settings: compound 10.0 µM
Numbers only, in %.

Consider the reported kinase still bound, per cent of control for these molecules:
[[record]]
record_smiles = "C=CC(=O)Nc1ccc(CN(C(=O)Nc2c(Cl)c(OC)cc(OC)c2Cl)c2cc(Nc3ccc(N4CCN(C)CC4)cc3)ncn2)cc1"
endpoint_result = 100

[[record]]
record_smiles = "O=C(Nc1cccc(Nc2ncc(Br)c(NCCc3cnc[nH]3)n2)c1)N1CCCC1"
endpoint_result = 46

[[record]]
record_smiles = "O=c1cc(N2CCOCC2)oc2c(-c3cccc4c3sc3ccccc34)cccc12"
endpoint_result = 80


Lookup result for `N#CCNC(=O)c1ccc(-c2ccnc(Nc3ccc(N4CCOCC4)cc3)n2)cc1` ; measured kinase still bound, per cent of control: 34

====

I'd appreciate it if you could supply kinase still bound, per cent of control values for the items below.
System: CPK1 (P.falciparum)
Experiment: KINOMEscan competition binding
Conditions: compound 10.0 µM
Answers are plain numbers, in %.

Consider the reported kinase still bound, per cent of control for these compounds:
[[record]]
record_smiles = "O=C1NC(=O)/C(=C/c2ccc3nccc(-c4ccncc4)c3c2)S1"
endpoint_result = 11

[[record]]
record_smiles = "COCC(=O)NC/C=C/c1ccc2ncnc(Nc3ccc(Oc4ccc(C)nc4)c(C)c3)c2c1"
endpoint_result = 25

[[record]]
record_smiles = "O=C(Nc1cccc(Nc2ncc(Br)c(NCCc3cnc[nH]3)n2)c1)N1CCCC1"
endpoint_result = 3.8


Moving on to the next compound.
Lookup result for `CN(C)C/C=C/C(=O)Nc1ccc(C(=O)Nc2cccc(Nc3nccc(-c4cccnc4)n3)c2)cc1` ; measured kinase still bound, per cent of control: 100

====

Target: MAP4K2 (human)
Test: KINOMEscan competition binding
Conditions: compound 10.0 µM
// boundary case: kinase still bound, per cent of control equal to 40% maps to rule not met; strictly smaller maps to rule met

[[record]]
record_smiles = "COc1cc2ncn(-c3cc(OCc4ccccc4C(F)(F)F)c(C(N)=O)s3)c2cc1OC"
label_value = "rule not met"


Record `COc1cc2ncnc(-n3nc(-c4ccccn4)nc3N)c2cc1OC` : is its kinase still bound, per cent of control strictly below 40%?
rule not met

Record `CCN1CCN(C(=O)Cc2ccc(Nc3ncc(F)c(Nc4ccc(C(=O)Nc5ccccc5Cl)cc4)n3)cc2)CC1` : is its kinase still bound, per cent of control strictly below 40%?
rule not met

Record `CN(C)C/C=C/C(=O)Nc1ccc(C(=O)Nc2cccc(Nc3nccc(-c4cccnc4)n3)c2)cc1` : is its kinase still bound, per cent of control strictly below 40%?
rule met

====

Target: PRKG1 (human) (UniProt Q13976)
Sequence (Q13976 whole entry, looked up): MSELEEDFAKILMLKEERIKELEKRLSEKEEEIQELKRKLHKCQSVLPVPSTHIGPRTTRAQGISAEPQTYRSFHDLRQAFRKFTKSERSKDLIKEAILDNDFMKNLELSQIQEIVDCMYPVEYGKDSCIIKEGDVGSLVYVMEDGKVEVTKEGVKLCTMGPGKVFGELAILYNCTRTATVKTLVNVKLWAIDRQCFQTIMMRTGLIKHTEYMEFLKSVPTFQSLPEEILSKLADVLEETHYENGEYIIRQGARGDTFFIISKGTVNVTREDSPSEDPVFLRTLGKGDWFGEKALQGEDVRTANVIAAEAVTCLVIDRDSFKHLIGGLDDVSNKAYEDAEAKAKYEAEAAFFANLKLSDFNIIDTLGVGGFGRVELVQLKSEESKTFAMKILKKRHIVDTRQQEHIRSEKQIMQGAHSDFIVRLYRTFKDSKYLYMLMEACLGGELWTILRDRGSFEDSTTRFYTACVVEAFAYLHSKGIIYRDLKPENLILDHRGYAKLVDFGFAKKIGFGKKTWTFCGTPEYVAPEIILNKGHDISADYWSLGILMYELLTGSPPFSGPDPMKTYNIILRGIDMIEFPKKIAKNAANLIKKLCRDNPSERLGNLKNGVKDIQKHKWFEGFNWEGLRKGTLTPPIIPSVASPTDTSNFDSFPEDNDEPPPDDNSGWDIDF
Assay: KINOMEscan competition binding
Details: compound 10.0 µM
readout name: kinase still bound, per cent of control
Entry format: amount then unit.

Consider the reported kinase still bound, per cent of control for these compounds:
[[record]]
record_smiles = "O=C1NC(=O)/C(=C/c2ccc3nccc(-c4ccncc4)c3c2)S1"
endpoint_result = "75%"

[[record]]
record_smiles = "CS(=O)(=O)N1CCN(Cc2cc3nc(-c4cccc5[nH]ncc45)nc(N4CCOCC4)c3s2)CC1"
endpoint_result = "100%"

[[record]]
record_smiles = "C=CC(=O)Nc1cc(-n2c(=O)ccc3cnc4ccc(-c5cn[nH]c5)cc4c32)ccc1C"
endpoint_result = "91%"

[[record]]
record_smiles = "CNC(=O)c1ccc(Nc2cc(Nc3ccccc3S(=O)(=O)C(C)C)c3cc[nH]c3n2)nc1"
endpoint_result = "100%"

[[record]]
record_smiles = "CCN(CC)CCCCNc1ncc2cc(-c3cc(OC)cc(OC)c3)c(NC(=O)NC(C)(C)C)nc2n1"
endpoint_result = "100%"

[[record]]
record_smiles = "CN(C)C/C=C/C(=O)Nc1ccc(C(=O)Nc2cccc(Nc3nccc(-c4cccnc4)n3)c2)cc1"
endpoint_result = "100%"

[[record]]
record_smiles = "O=C(Nc1cccc(Nc2ncc(Br)c(NCCc3cnc[nH]3)n2)c1)N1CCCC1"
endpoint_result = "72%"

[[record]]
record_smiles = "C=CC(=O)Nc1ccc(CN(C(=O)Nc2c(Cl)c(OC)cc(OC)c2Cl)c2cc(Nc3ccc(N4CCN(C)CC4)cc3)ncn2)cc1"
endpoint_result = "100%"


Kindly give each listed record's kinase still bound, per cent of control.
1. O=c1cc(N2CCOCC2)oc2c(-c3cccc4c3sc3ccccc34)cccc12
2. COc1cc2ncnc(-n3nc(-c4ccccn4)nc3N)c2cc1OC

["100%", "100%"]

Kindly give each listed record's kinase still bound, per cent of control.
1. Cc1n[nH]c2ccc(-c3cncc(OC[C@@H](N)Cc4c[nH]c5ccccc45)c3)cc12
2. COc1ccc(N(C(=O)Oc2c(C)cccc2C)c2ccnc(Nc3ccc(N4CCN(C)CC4)cc3)n2)c(OC)c1
3. COc1cc2ncn(-c3cc(OCc4ccccc4C(F)(F)F)c(C(N)=O)s3)c2cc1OC

["0.65%", "100%", "100%"]

Kindly give each listed record's kinase still bound, per cent of control.
1. CNC(=O)c1cc(Oc2ccc(NC(=O)Nc3ccc(Cl)c(C(F)(F)F)c3)cc2)ccn1
2. N#CCNC(=O)c1ccc(-c2ccnc(Nc3ccc(N4CCOCC4)cc3)n2)cc1
3. COc1cc(C(=O)N2CCC(N3CCN(C)CC3)CC2)ccc1Nc1ncc2c(n1)N(C)c1ccccc1C(=O)N2C

["95%", "100%", "98%"]

Lookup result for `COc1cc(N2CCN(C)CC2)ccc1Nc1ncc2c(n1)N(C)c1ccccc1C(=O)N2C` ; measured kinase still bound, per cent of control: 100%
